Origin of values: paper PMC7797039

Reported Kd by item:
- study system: PARP-1 (Homo sapiens, UniProt P09874 1-1014)
- Sequence (P09874 whole entry): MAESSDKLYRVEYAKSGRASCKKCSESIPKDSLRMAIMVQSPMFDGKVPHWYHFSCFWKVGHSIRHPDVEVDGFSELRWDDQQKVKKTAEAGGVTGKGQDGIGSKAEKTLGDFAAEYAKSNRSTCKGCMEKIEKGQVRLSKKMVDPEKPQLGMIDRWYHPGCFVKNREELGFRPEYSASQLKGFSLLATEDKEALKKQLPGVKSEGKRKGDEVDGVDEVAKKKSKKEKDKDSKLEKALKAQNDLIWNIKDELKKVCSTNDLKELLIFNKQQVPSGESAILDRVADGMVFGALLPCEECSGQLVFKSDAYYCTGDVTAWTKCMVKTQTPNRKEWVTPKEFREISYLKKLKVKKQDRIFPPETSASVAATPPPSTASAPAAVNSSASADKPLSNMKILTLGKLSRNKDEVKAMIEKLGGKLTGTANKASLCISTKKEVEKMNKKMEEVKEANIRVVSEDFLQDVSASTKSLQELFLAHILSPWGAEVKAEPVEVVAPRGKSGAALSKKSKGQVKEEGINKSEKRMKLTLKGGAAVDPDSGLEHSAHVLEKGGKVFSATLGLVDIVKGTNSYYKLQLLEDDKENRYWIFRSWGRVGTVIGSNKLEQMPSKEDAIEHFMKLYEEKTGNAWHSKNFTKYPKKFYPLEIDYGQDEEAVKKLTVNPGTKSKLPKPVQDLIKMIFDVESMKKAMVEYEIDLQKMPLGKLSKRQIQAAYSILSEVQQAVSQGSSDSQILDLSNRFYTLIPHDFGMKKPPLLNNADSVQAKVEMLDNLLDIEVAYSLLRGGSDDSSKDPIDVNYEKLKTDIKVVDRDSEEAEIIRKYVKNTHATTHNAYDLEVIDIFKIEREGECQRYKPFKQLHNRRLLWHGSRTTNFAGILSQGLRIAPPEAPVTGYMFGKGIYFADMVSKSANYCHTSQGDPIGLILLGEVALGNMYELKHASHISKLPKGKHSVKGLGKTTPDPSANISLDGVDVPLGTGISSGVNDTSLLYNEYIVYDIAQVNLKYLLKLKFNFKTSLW
- procedure summary: fluorescence anisotropy; 140 mM KCl, 8 mM MgCl2; 25 mM HEPES pH 8.0, 140 mM KCl, 8 mM MgCl2, 50 ug/ml BSA, 0.02 mM TCEP, 4% glycerol, 11.4 mM bME, 5 nM labeled DNA, 30 min room temperature, read at 25 C
- condition: protein: recombinant; tags: His-tag (pET28a); parallel G4

{"columns": ["binder", "unit name", "Kd"],
 "data": [
  ["TGGGTGGGTAGGGTGGGT (structured_DNA) [c-MYC G4DNA (Pu18 T14T23)]", "nM", 400],
  ["CGGGCGGGCGCGAGGGAGGGGAGG (structured_DNA) [c-KIT 5']", "nM", 230]
]}
